- target.or.test.system: TrCel7B (Trichoderma reesei)
- Construct: native enzyme purified from culture filtrate of T. reesei QM 9414; secreted, signal peptide removed
- Sequence (P07981 23-459): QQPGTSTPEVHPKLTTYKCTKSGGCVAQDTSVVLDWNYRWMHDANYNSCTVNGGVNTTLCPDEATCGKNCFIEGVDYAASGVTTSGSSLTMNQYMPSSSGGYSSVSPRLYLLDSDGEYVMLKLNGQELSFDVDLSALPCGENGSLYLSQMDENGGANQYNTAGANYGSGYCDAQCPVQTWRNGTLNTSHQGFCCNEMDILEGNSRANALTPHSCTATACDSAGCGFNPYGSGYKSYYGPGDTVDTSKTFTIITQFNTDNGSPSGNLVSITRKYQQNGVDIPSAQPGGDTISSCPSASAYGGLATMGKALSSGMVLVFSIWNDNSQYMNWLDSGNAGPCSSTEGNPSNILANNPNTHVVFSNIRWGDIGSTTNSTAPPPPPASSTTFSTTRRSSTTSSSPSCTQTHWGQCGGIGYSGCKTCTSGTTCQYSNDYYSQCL
- assay: inhibition of 4-methylumbelliferyl-beta-lactoside hydrolysis, fluorescence, initial rates
- test.context: 20 μM MUL, 10 nM enzyme, 50 mM sodium acetate pH 5.0, BSA 0.1 g/l, 35°C
property.name: IC50 (mM)
Respond with the bare value in mM.

So what's the measured IC50 for this one? OC[C@H]1O[C@@H](O[C@H]2[C@H](O)[C@@H](O)C(O)O[C@@H]2CO)[C@H](O)[C@@H](O)[C@@H]1O (stereo partly shown) 8.9
